The origin of these recorded values is patent US20070149481A1.

Would you mind telling me the reported inhibition at 10 µM of each entry?
# tested.on: GSK3β (Homo sapiens, UniProt P49841)
# Construct: purchased Upstate Discovery
# Sequence (P49841 whole entry, species assumed): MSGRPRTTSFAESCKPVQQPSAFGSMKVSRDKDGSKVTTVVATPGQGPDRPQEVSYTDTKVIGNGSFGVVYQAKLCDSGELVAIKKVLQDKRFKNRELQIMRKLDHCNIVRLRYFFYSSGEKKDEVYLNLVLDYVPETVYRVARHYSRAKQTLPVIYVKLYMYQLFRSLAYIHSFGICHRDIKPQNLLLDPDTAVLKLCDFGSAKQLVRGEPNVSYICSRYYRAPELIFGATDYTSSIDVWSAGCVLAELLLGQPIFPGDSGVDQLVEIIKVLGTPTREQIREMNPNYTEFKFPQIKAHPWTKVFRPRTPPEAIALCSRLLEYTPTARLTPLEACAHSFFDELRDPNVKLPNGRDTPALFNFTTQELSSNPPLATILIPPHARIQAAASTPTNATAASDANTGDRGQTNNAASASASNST
# experimental.details: Glycogen Synthase Kinase 3β inhibition assay (GSK3β)
# Assay type: biochemical
# condition.label: 10 μM compound
# Method: The GSK3β kinase activity assay utilizes a radioactivity-based format in a 96-well PCR plate with radioactive readout. The GSK3 β activity was assayed in a 25 μL assay mixture containing 8 mM HEPES (pH 7.0), 250 μM ATP, 0.2 mM EDTA (pH 8), 2% DMSO, 250 ng/mL Myelin Basic Protein (MBP, Sigma M-1891), and 12 ng/mL GSK3β (Upstate Discovery, specific activity=607 nmol/min*GS2 peptide, concentration of 6.05 mg/mL). […]
One number for each entry, in %.

The cases that follow already have their inhibition at 10 µM on record.
[[record]]
compound = "COC(=O)c1cn([C@@H]2C3CC([C@H]2O)n2c4ccccc4c4c5c(c6c7ccccc7n3c6c42)C(=O)NC5=O)nn1 (mixture of isomers)"
test_result = 12.1

[[record]]
compound = "N[C@@H]1C2CC([C@H]1O)n1c3ccccc3c3c4c(c5c6ccccc6n2c5c31)C(=O)NC4=O (mixture of isomers)"
test_result = 98.5

[[record]]
compound = "COc1ccc(CN2C(=O)c3c(c4c5ccccc5n5c4c4c3c3ccccc3n4C3CC5[C@](N)(C#N)C3)C2=O)cc1 (some centres unmarked)"
test_result = 25.6

[[record]]
compound = "O=C(O)c1cn([C@@H]2C3CC([C@H]2O)n2c4ccccc4c4c5c(c6c7ccccc7n3c6c42)C(=O)NC5=O)nn1 (mixture of isomers)"
test_result = 75.9

[[record]]
compound = "N#C[C@]1(N)CC2CC1n1c3ccccc3c3c4c(c5c6ccccc6n2c5c31)C(=O)NC4=O (mixture of isomers)"
test_result = 98.5


Dear colleague, could you please provide inhibition at 10 µM for the compounds listed below?
1. N[C@@]1(C(=O)O)CC2CC1n1c3ccccc3c3c4c(c5c6ccccc6n2c5c31)C(=O)NC4=O (some centres unmarked)
2. CCOC(=O)[C@]1(N)CC2CC1n1c3ccccc3c3c4c(c5c6ccccc6n2c5c31)C(=O)NC4=O (some centres unmarked)
3. CN[C@H]1CC2CC1n1c3ccccc3c3c4c(c5c6ccccc6n2c5c31)C(=O)NC4=O (mixture of isomers)
4. NC(=O)[C@]1(N)C[C@@H]2CC1n1c3ccc(O)cc3c3c4c(c5c6cc(O)ccc6n2c5c31)C(=O)NC4=O (mixture of isomers)
5. NC(=O)[C@]1(N)CC2CC1n1c3ccccc3c3c4c(c5c6ccccc6n2c5c31)C(=O)NC4=O (mixture of isomers)

99
94.2
78.2
100
100

---

Would you mind telling me the reported inhibition at 10 µM of each entry?
# tested.on: PKA (catalytic subunit, bovine heart) (Bos taurus, UniProt P00517)
# Construct: PKA (catalytic subunit, bovine heart, Calbiochem 539486); purchased Calbiochem 539486; host or cells: bovine heart (tissue-derived)
# experimental.details: Protein Kinase A inhibition assay (PKA)
# Assay type: biochemical
# condition.label: 10 μM compound
Answers are plain numbers, in %.

The cases that follow already have their inhibition at 10 µM on record.
[[record]]
compound = "N[C@@]1(C(=O)NCCO)CC2CC1n1c3ccccc3c3c4c(c5c6ccccc6n2c5c31)C(=O)NC4=O (mixture of isomers)"
test_result = 90.5

[[record]]
compound = "NC(=O)[C@]1(N)CC2CC1n1c3ccccc3c3c4c(c5c6ccccc6n2c5c31)C(=O)NC4=O (mixture of isomers)"
test_result = 96.8

[[record]]
compound = "CN[C@H]1CC2CC1n1c3ccccc3c3c4c(c5c6ccccc6n2c5c31)C(=O)NC4=O (mixture of isomers)"
test_result = 68.4

[[record]]
compound = "N#C[C@]1(N)CC2CC1n1c3ccccc3c3c4c(c5c6ccccc6n2c5c31)C(=O)NC4=O (mixture of isomers)"
test_result = 89.6


Dear colleague, could you please provide inhibition at 10 µM for the compounds listed below?
1. COc1ccc(CN2C(=O)c3c(c4c5ccccc5n5c4c4c3c3ccccc3n4C3CC5[C@@H](N)C3)C2=O)cc1 (mixture of isomers)
2. N[C@@H]1C2CC([C@H]1O)n1c3ccccc3c3c4c(c5c6ccccc6n2c5c31)C(=O)NC4=O (mixture of isomers)
3. COC(=O)[C@]1(N)CC2CC1n1c3ccccc3c3c4c(c5c6ccccc6n2c5c31)C(=O)NC4=O (stereo partly shown)
4. [N-]=[N+]=NC1C2CC([C@H]1O)n1c3ccccc3c3c4c(c5c6ccccc6n2c5c31)C(=O)NC4=O (mixture of isomers)

17.6
84.8
70.8
79.8

Dear colleague, could you please provide inhibition at 10 µM for the compounds listed below?
1. COc1ccc(CN2C(=O)c3c(c4c5ccccc5n5c4c4c3c3ccccc3n4C3CC5[C@]4(C3)NC(=O)N(C)C4=O)C2=O)cc1 (mixture of isomers)
2. O=C(O)c1cn([C@@H]2C3CC([C@H]2O)n2c4ccccc4c4c5c(c6c7ccccc7n3c6c42)C(=O)NC5=O)nn1 (mixture of isomers)

1: 16.6; 2: 11.5

---

Would you mind telling me the reported % Inhibition PKC of each entry?
# Test system: PKC (rat brain)
# experimental.details: Protein Kinase C inhibition assay (PKC)
# Format: biochemical
# condition.label: 10 μM compound

[[record]]
molecule = "N[C@@]1(C(=O)NCCO)CC2CC1n1c3ccccc3c3c4c(c5c6ccccc6n2c5c31)C(=O)NC4=O (mixture of isomers)"
test_result = "95.94%"

[[record]]
molecule = "COc1ccc(CN2C(=O)c3c(c4c5ccccc5n5c4c4c3c3ccccc3n4C3CC5[C@](N)(C#N)C3)C2=O)cc1 (stereo partly drawn)"
test_result = "28.19%"

[[record]]
molecule = "NC(=O)[C@]1(N)C[C@@H]2CC1n1c3ccc(O)cc3c3c4c(c5c6cc(O)ccc6n2c5c31)C(=O)NC4=O (mixture of isomers)"
test_result = "96.63%"


Dear colleague, could you please provide % Inhibition PKC for the molecules listed below?
1. N[C@@H]1C2CC([C@H]1O)n1c3ccccc3c3c4c(c5c6ccccc6n2c5c31)C(=O)NC4=O (mixture of isomers)
2. CCCCNC1CC2CC1n1c3ccccc3c3c4c(c5c6ccccc6n2c5c31)C(=O)N(Cc1ccc(OC)cc1)C4=O (stereo not drawn)
3. CN[C@H]1CC2CC1n1c3ccccc3c3c4c(c5c6ccccc6n2c5c31)C(=O)NC4=O (mixture of isomers)

1: 93.34%; 2: 29.04%; 3: 90.78%

Dear colleague, could you please provide % Inhibition PKC for the molecules listed below?
1. O=C1NC(=O)c2c1c1c3ccccc3n3c1c1c2c2ccccc2n1C1CC3CC1N1CCCCC1 (stereo not drawn)
2. COc1ccc(CN2C(=O)c3c(c4c5ccccc5n5c4c4c3c3ccccc3n4C3CC(N(C)C)C5C3)C2=O)cc1 (stereo not drawn)
3. CCOC(=O)[C@]1(N)CC2CC1n1c3ccccc3c3c4c(c5c6ccccc6n2c5c31)C(=O)NC4=O (stereo partly drawn)

1. 46.63%
2. 21.91%
3. 83.97%

---

# tested.on: His tagged ERK2 (Homo sapiens, UniProt P28482)
# Sequence (P28482 whole entry): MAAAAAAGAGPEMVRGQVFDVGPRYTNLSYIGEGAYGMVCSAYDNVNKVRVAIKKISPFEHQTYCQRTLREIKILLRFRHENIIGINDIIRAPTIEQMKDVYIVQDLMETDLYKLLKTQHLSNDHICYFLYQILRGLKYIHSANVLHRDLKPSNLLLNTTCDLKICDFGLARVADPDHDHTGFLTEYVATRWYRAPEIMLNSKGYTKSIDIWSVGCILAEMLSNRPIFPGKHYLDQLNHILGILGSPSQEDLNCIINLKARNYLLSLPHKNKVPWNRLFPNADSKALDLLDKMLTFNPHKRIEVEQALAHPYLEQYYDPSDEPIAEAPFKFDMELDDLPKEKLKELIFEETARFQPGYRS
# experimental.details: Extracellular signal Regulated Kinase 2 inhibition assay (ERK2), radioactive filtermat format
# Format: biochemical
# condition.label: 10 μM compound
Would you mind telling me the reported inhibition at 10 µM of each entry?
Answers are plain numbers, in %.

[[record]]
molecule = "COc1ccc(CN2C(=O)c3c(c4c5ccccc5n5c4c4c3c3ccccc3n4C3CC5[C@@H](N)C3)C2=O)cc1 (mixture of isomers)"
test_result = 30.9


Kindly consider the entry below.
Reported inhibition at 10 µM for CCOC(=O)[C@]1(N)CC2CC1n1c3ccccc3c3c4c(c5c6ccccc6n2c5c31)C(=O)NC4=O (stereo partly drawn) : what is it?
61.3

---

# tested.on: PKA (catalytic subunit, bovine heart) (Bos taurus)
# Construct: PKA (catalytic subunit, bovine heart, Calbiochem 539486); purchased Calbiochem 539486; host or cells: bovine heart (tissue-derived)
# experimental.details: Protein Kinase A inhibition assay (PKA)
# Format: biochemical
# condition.label: 10 μM compound
readout.type: inhibition at 10 µM

[[record]]
compound = "CCOC(=O)[C@]1(N)CC2CC1n1c3ccccc3c3c4c(c5c6ccccc6n2c5c31)C(=O)N(Cc1ccc(OC)cc1)C4=O (stereo partly drawn)"
readout_type = "inhibition at 10 µM"
test_result = "< 10%"

[[record]]
compound = "COC(=O)c1cn([C@@H]2C3CC([C@H]2O)n2c4ccccc4c4c5c(c6c7ccccc7n3c6c42)C(=O)NC5=O)nn1 (mixture of isomers)"
readout_type = "inhibition at 10 µM"
test_result = "< 10%"


Reported inhibition at 10 µM for COc1ccc(CN2C(=O)c3c(c4c5ccccc5n5c4c4c3c3ccccc3n4C3CC5[C@@H](N4CCOCC4)C3)C2=O)cc1 (stereo partly drawn) : what is it?
< 10%
